Biological target: JAK2 (Homo sapiens (Human), UniProt O60674)
Sequence (O60674 whole entry): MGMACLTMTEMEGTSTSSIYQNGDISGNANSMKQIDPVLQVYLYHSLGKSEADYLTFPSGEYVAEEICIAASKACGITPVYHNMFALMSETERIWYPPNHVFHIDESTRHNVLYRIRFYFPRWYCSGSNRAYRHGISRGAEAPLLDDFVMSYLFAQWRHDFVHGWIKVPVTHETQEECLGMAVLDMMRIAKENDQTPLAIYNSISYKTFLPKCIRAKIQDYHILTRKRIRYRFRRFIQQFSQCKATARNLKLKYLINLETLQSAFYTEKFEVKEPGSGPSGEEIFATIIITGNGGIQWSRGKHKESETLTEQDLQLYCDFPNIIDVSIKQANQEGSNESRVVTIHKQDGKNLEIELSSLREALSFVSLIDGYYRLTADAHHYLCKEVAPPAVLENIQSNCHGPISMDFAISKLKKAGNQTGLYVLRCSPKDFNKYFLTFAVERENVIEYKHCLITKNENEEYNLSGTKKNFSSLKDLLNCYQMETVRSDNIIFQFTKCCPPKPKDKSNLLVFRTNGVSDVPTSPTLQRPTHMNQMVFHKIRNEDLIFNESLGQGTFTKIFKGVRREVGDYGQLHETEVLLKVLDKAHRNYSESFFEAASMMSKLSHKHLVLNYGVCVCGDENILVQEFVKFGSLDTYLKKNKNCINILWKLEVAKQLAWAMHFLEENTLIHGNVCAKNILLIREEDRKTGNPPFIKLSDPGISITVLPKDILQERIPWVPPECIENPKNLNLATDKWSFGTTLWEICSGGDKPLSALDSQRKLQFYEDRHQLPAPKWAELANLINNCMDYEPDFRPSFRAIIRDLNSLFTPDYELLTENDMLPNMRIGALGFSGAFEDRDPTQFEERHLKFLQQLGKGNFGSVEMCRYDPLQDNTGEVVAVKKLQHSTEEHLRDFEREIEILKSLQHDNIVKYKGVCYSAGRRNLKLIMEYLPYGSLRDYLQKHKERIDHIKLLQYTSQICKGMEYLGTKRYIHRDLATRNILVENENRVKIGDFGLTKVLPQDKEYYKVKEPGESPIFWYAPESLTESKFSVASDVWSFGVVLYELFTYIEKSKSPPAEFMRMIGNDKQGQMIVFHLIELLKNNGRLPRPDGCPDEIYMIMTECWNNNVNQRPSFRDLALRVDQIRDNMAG
Assay: TR-FRET JAK2 kinase assay
Format: biochemical
Details: read-out: JAK2 % inhibition at 100 nM; 100 nM; ATP 10 μM
assay-endpoint: inhibition at 0.1 µM (%)

Recorded inhibition at 0.1 µM, per entry:
1) Cc1cc(Nc2ncc3c(n2)CCN(c2cc(NC(=O)c4cccc(C(F)(F)F)c4)ccc2Cl)C3=O)ccc1N1CCN(C)CC1 [Compound 171]
92
2) Cc1ccc(NC(=O)c2cc(C(F)(F)F)ccn2)cc1N1CCc2nc(Nc3ccc(N4CCN(C)CC4)cc3)ncc2C1=O [Compound 166]
74
3) Cc1ccc(NC(=O)c2cc(C(F)(F)F)ccn2)cc1N1CCc2nc(Nc3ccc(C(=O)N4CCN(C)CC4)cc3)ncc2C1=O [Compound 170]
64
4) Cc1ccc(NC(=O)c2cccc(C(F)(F)F)c2)cc1N1CCc2nc(Nc3ccc(S(=O)(=O)NC4CC4)cc3)ncc2C1 [Compound 165]
74

(A) Cc1ccc(NC(=O)c2cccc(C(F)(F)F)c2)cc1N1CCc2nc(Nc3ccc(OCCCN4CCOCC4)cc3)ncc2C1=O [Compound 182]
(B) Cc1ccc(NC(=O)c2cccc(C(F)(F)F)c2)cc1N1CCc2nc(Nc3ccc(N4CCNCC4)cc3)ncc2C1=O [Compound 178]
Qu. I'm curious whether A or B has the smaller inhibition at 0.1 µM number. Which is it? When you have decided, please share the label of that item.
Ans. A
(A: 55%, B: 91%)
